- Assay overview: growth inhibitors of H69AR lung tumor, primary screen, human, duplicate replicates (AID 580);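 also: 100% = mean luminescence of untreated wells and 0% = no signal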
- Experimental context: H69AR lung tumor cells viability, ATP luminescence, 72 h; at 10 µM; stronger effect = lower value
Collected viability values appear next to each entry.
Supply the numeric figure in %, leaving out any unit text.

Lookup: Given the entry O=C1c2ccccc2S(=O)(=O)N1Cc1nnc(-c2ccccc2Br)o1 , report its measured viability.
Found: 95

Lookup: Now try COc1cccc(-c2nnc3sc(C4CCCCC4)nn23)c1 .
Found: 63.4

Lookup: Now try CCOc1cc(S(=O)(=O)NCc2ccc3c(c2)OCO3)ccc1F .
Found: 97.9

Lookup: Now try Cc1cccc(N(C)C(=O)c2coc(=O)c3ccccc23)c1 .
Found: 85.8

Lookup: Now try CC(C)(C)NC(=O)CN(C(=O)CS(=O)CC(=O)Nc1ccc(F)cc1)c1ccc(Cl)cc1 (stereo not drawn) .
Found: 98.9

Lookup: Now try CCc1n[nH]c2c1C(=O)CC(C)(C)C2 .
Found: 89.1

* * *

- Assay overview: growth suppression of yeast trafficking mutant, preliminary HTS, modulators of trafficking downstream of Golgi apparatus project, 1536-format plate, OD 615 nm (AID 637)
- Experimental context: yeast transport mutant growth, absorbance 615 nm, 18 h; stronger effect = higher value
Collected inhibition values appear next to each entry.
Supply the numeric figure in %, leaving out any unit text.

Lookup: Given the entry Cc1ccc2c(c1)C(N1CCCC1=O)CC(c1ccco1)N2 (configuration not stated) , report its measured inhibition.
Found: -6.51

Lookup: Now try CCOC(=O)N1CCN(C(=O)C(NS(=O)(=O)c2cccc3nsnc23)c2ccccc2)CC1 (configuration not stated) .
Found: -0.63

Lookup: Now try O=C(NCc1ccco1)c1ccccc1Nc1ccc(F)cc1 .
Found: -7.09

Lookup: Now try C=CCn1cnc2c(c1=O)c1nc3ccccc3nc1n2-c1ccc(C)cc1 .
Found: -1.61

Lookup: Now try CCc1c(C)nc2ncnn2c1NCCc1ccc(OC)c(OC)c1 .
Found: -0.18

Lookup: Now try O=C(CSc1ncn[nH]1)NC1CC2CCC1C2 (configuration not stated) .
Found: -1.82

Lookup: Now try C#CCSc1nc(-c2cccs2)ccc1C#N .
Found: 21.8

Lookup: Now try CCCCCC1NC(=O)NC1CCCCCC(=O)O (configuration not stated) .
Found: -2.22

Lookup: Now try S=C(NCC1CCCO1)n1nnc2ccccc21 (configuration not stated) .
Found: -0.95

Lookup: Now try CCCn1nc(NC(=O)c2cccs2)c2cc3cc(OC)ccc3nc21 .
Found: 2.58

Lookup: Now try Cc1nn(C(=O)c2ccccc2)c2c1C(=O)CC(C)(C)C2 .
Found: 0.73

Lookup: Now try CCC(C)OC(=O)c1[nH]c2c(c1C)C(=O)CC(c1ccc(N(C)C)cc1)C2 (configuration not stated) .
Found: 24.8

* * *

- Assay overview: reversal of MRP1-mediated doxorubicin resistance, pilot screen, H69AR cells, doxorubicin co-treatment (AID 601)
- Experimental context: H69AR cells + 2 uM doxorubicin, CellTiter-Glo, 72 h; measured here: viability with 2 uM doxorubicin; at 10 µM; stronger effect = lower value
Recorded metric: viability

Worked cases, viability given:
Structure as smiles	Measured
CCOc1ccccc1-n1c(SCC(=O)NC2CCCC2)nnc1-c1ccoc1C	91.3%
CCCC(=O)Nc1nnc(CC(=O)N2CCCC2)s1	89.5%
Cc1ccc2c(C(=O)CN3CCSCC3)c(C)[nH]c2c1	75%
COc1cccc(C(=O)NC2=NCCS2)c1	84.6%
COc1ccc(CCNC(=O)CSc2nnc(CNc3ccc(Cl)cc3)o2)cc1OC	90.9%

Lookup: Given the entry COC(=O)CSc1nnc(-c2cccs2)n1-c1ccc(Cl)cc1 , report its measured viability.
Found: 83.1%

Lookup: Now try CC(=N\O)/C(CN(C)C)=N/O .
Found: 97.9%

Lookup: Now try CCc1nc(N[C@@H](Cc2c[nH]c3ccccc23)C(=O)O)c2oc3ccccc3c2n1 .
Found: 96.7%

Lookup: Now try Cc1cccc(OCC(=O)Nc2cc(C)ccc2O)c1 .
Found: 51.4%

Lookup: Now try COc1ccccc1NC(=O)Cc1noc(CSc2cc(C)c3ccccc3n2)n1 .
Found: 80.7%

Lookup: Now try CCOC(=O)c1sc2nc(SCC(=O)NCc3ccco3)n(Cc3ccccc3)c(=O)c2c1C .
Found: 33%
